- target.or.system: α-glucosidase (Saccharomyces cerevisiae, UniProt P53341)
- Sequence (P53341 whole entry): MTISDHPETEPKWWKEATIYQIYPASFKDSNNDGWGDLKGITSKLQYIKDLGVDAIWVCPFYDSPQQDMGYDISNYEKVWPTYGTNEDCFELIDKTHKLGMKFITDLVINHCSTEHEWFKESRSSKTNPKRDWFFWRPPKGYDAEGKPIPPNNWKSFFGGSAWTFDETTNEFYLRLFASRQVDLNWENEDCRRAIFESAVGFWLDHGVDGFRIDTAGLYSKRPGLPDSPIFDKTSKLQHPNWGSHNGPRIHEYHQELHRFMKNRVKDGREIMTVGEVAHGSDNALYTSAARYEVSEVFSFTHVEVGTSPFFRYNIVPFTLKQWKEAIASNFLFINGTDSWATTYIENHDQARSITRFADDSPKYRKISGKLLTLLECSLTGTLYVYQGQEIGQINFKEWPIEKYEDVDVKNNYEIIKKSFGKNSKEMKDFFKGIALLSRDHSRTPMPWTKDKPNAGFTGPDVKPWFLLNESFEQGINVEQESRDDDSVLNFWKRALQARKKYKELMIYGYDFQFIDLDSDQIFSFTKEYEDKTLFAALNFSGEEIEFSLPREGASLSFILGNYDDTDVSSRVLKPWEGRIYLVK
Collected pKi values appear next to each entry.
Value format note: pKi is -log10 of concentration (mol/L); just state the number.

COc1cc(O)c2c(c1)CCc1cc(O)c(-c3c(OC)cc(O)c4c3CCc3cc(O)ccc3-4)cc1-2 [Phoyunnanin C (11), phoyunnanin C]; 5.22

Switching to the query record.
Can you look up the measured pKi of COc1cc(O)c2c(c1)CCc1cc(Oc3c(OC)cc(O)c4c3CCc3cc(O)ccc3-4)ccc1-2 [Phoyunnanin E (10), phoyunnanin E] for me?
5.23

----------
- target.or.system: α-glucosidase (Saccharomyces cerevisiae)
- Construct: purchased Sigma-Aldrich (St. Louis, MO, USA)
- protocol: biochemical
recorded.metric: IC50 (µM)
The reply should be a number in µM, with the unit left off.

Can you look up the measured IC50 of `COc1cc(O)c2c(c1-c1c(OC)cc(O)c3c1CCc1cc(O)ccc1-3)CCc1cc(O)ccc1-2` for me?
18.4

----------
- target.or.system: α-glucosidase (Saccharomyces cerevisiae, UniProt P53341)
- Construct: purchased Sigma-Aldrich (St. Louis, MO, USA)
- protocol: biochemical
- condition.description: read-out: α-Glucosidase inhibitory activity IC50
pIC50: −log10 of the molar value.
Binary call on pIC50: TRUE from 4 upward, FALSE beneath that.

Answered examples (3):
COc1cc(O)cc(CCc2ccc(O)c(OC)c2)c1; FALSE
COc1cc(O)cc2ccc3cccc(O)c3c12; FALSE
COc1cc(O)c2c(c1)CCc1cc(O)c(-c3c(OC)cc(O)c4c3CCc3cc(O)ccc3-4)cc1-2; TRUE

Is the recorded value of pIC50 equal to or greater than 4 for this molecule? `COc1cc(O)c2c(c1)CCc1cc(O)ccc1-2`
FALSE

Is the recorded value of pIC50 equal to or greater than 4 for this molecule? `COc1cc(O)c2c(c1)CCc1cc(Oc3c(OC)cc(O)c4c3CCc3cc(O)ccc3-4)ccc1-2`
TRUE
